B1: PhoQ; a variant is named by its letters at X, in order, P23837 (parent)
chain: MKKLLRLFFPLSLRVRFLLATAAVVLVLSLAYGMVALIGYSVSFDKTTFRLLRGESNLFYTLAKWENNKLHVELPENIDKQSPTMTLIYDENGQLLWAQRDVPWLMKMIQPDWLKSNGFHEIEADVNDTSLLLSGDHSIQQQLQEVREDDDDAEMTHSVAVNVYPATSRMPKLTIVVVDTIPVELKSSYMVWSWFIYVLSANLLLVIPLLWVAAWWSLRPIEALAKEVRELEEHNRELLNPATTRELTSLVRNLNRLLKSERERYDKYRTTLTDLTHSLKTPLXXLQXXLRSLRSEKMSVSDAEPVMLEQISRISQQIGYYLHRASMRGGTLLSRELHPVAPLLDNLTSALNKVYQRKGVNISLDISPEISFVGEQNDFVEVMGNVLDNACKYCLEFVEISARQTDEHLYIVVEDDGPGIPLSKREVIFDRGQRVDTLRPGQGVGLAVAREITEQYEGKIVAGESMLGGARMEVIFGRQHSAPKDE

# Variants of: B1
# test description: enrichment ratio after two sorts for PhoP signalling (ratio (wild type AVST 3.29)); higher = more functional
# setup conditions: with PhoP (E. coli)
Whole data set: some 140,000 sequences, median “enrichment ratio after two sorts for PhoP signalling” near 0, cut for the highest 2% near 11. What follows is part of a selection rich in the highest values, with near analogues and random picks from the rest.
reported endpoint: enrichment ratio

A selection of reference data follows.
MTRL: ≤ 0.25
IALV: 13.1
HKAD: ≤ 0.25
VFVP: ≤ 0.25
TTTC: 5.52

Need enrichment ratio for each of these variants.
1. STCL
2. PLCL
3. MTCI
4. TCVN
5. GTCL
6. AKEC
7. FECI
8. FECS

1: 15.7; 2: ≤ 0.25; 3: ≤ 0.25; 4: 2.66; 5: 9.42; 6: ≤ 0.25; 7: 3.72; 8: 19.8

Need enrichment ratio for each of these variants.
1. FFQI
2. AFCP
3. YTCL
4. EHGM
5. NALV
6. PCVI

1: ≤ 0.25; 2: ≤ 0.25; 3: 5.77; 4: ≤ 0.25; 5: ≤ 0.25; 6: ≤ 0.25

Need enrichment ratio for each of these variants.
1. LTTS
2. IKTK
3. SPYC
4. TTTS
5. WHQP
6. LALM
7. SECG
8. MEVW

1. ≤ 0.25
2. ≤ 0.25
3. ≤ 0.25
4. 14.1
5. ≤ 0.25
6. 8.02
7. 13.7
8. ≤ 0.25
